Experiment: Cytotoxicity against human TZM-bl cells infected with HIV1 NL4-3
Type: cell-based
Conditions: TZM-bl cells infected with HIV1 NL4-3
QUANTITY: CC50

Request: Entry Cc1cc(/C=C/C#N)cc(C)c1Oc1cc(Nc2ccc(C#N)cc2)c(N)cc1C(=O)N1CC(F)(F)C1 has what CC50?
Result: > 200 nM

---

Test: Aqueous solubility of the compound in 0.01 M HCl at pH 2 after 4 hrs by HPLC-UV analysis
Format: physicochemical
Rule: yes for solubility at 4 h not less than 20 µg/mL, no for anything less.

Request: Dear colleague, could you confirm whether COCCOC(=O)c1cc(N)c(Nc2ccc(C#N)cc2)cc1Oc1c(C)cc(/C=C/C#N)cc1C has solubility at 4 h at or above 20 µg/mL?
Result: no

Request: Follow-up entry: Cc1cc(/C=C/C#N)cc(C)c1Oc1cc(Nc2ccc(C#N)cc2)c(N)cc1C(=O)NN
Result: yes

Request: Same for Cc1cc(/C=C/C#N)cc(C)c1Oc1cc(Nc2ccc(C#N)cc2)c(N)cc1C(=O)N1CC(F)(F)C1
Result: yes

Request: Please do the same for Cc1cc(/C=C/C#N)cc(C)c1Oc1cc(Nc2ccc(C#N)cc2)c(N)cc1C(=O)OCCC#N as well.
Result: no

Request: Another: Cc1cc(/C=C/C#N)cc(C)c1Oc1cc(Nc2ccc(C#N)cc2)c(N)cc1C(=O)NCCCl
Result: no

--- query ---
Request: Entry Cc1cc(/C=C/C#N)cc(C)c1Oc1cc(Nc2ccc(C#N)cc2)c(N)cc1C(=O)N1CC1 : is its solubility at 4 h no less than 20 µg/mL?
Result: yes

---

Test: Half life in human liver microsomes at 1 uM pretreated up to 45 mins followed by NADPH addition by LC/MS/MS analysis
Type: ADME, microsome
Settings: liver microsomes
QUANTITY: half-life at 1 µM (min)
Express your answer in min, writing the number without its unit.

Request: GET /values?readout=half-life at 1 µM&item= Cc1cc(/C=C/C#N)cc(C)c1Oc1cc(Nc2ccc(C#N)cc2)c(N)cc1C(=O)N1CC(F)(F)C1
Result: 14
